# tgt: His-GST-TVMV-hRIPK1(1-324) (Homo sapiens (Human))
# test.protocol: RIPK1 HTRF Binding Assay
# applied.conditions: HTRF binding, 1 h at rt; read-out: RIPK1 (IC50)
pIC50: −log10 of the molar value.

| compound | pIC50 |
| --- | --- |
| COc1nc(C)c(-c2ccc3nc(NC(C)=O)cn3n2)cc1C(=O)NCc1cc(C(F)(F)F)ccc1F [Example 296] | 8.00 |
| COc1nc(C)c(-c2ccc3nc(NC(C)=O)cn3n2)cc1C(=O)NCc1cccc(F)c1OCC1CC1 [Example 299] | 8.40 |
| CC(=O)Nc1cn2nc(-c3cc(C(=O)NCc4cccc(OCC(F)(F)F)c4)c(C)nc3C)ccc2n1 [Example 73] | 7.24 |
| CC(=O)Nc1cn2nc(-c3cnc(Cl)c(C(=O)NC(C)c4ccccc4OC(F)(F)F)c3)ccc2n1 (stereo not shown) [Example 268] | 7.34 |
| CC(=O)Nc1cn2nc(-c3cc(C(=O)NCc4cc(F)cc(F)c4O[C@@H]4CCOC4)c(C)nc3C)ccc2n1 [Example 61] | 7.48 |
| CC(=O)Nc1cn2nc(-c3cc(C(=O)NCc4ccccc4OCC(F)(F)F)c(C)nc3C)ccc2n1 [Example 68] | 8.30 |
| CC(=O)Nc1cn2nc(-c3cnc(C)c(C(=O)NCc4cc(F)ccc4OC4CCCC4)c3)ccc2n1 [Example 222] | 8.52 |

* * *

# tgt: His-GST-TVMV-hRIPK1(1-324) (Homo sapiens (Human))
# test.protocol: RIPK1 HTRF Binding Assay
# applied.conditions: HTRF binding, 1 h at rt; read-out: RIPK1 (IC50)
The following compounds are listed with their measured IC50 values.
quantity.measured: IC50 (nM)

| substance.smiles | measure.unit | recorded.number |
| --- | --- | --- |
| CC(=O)Nc1cn2nc(-c3cncc(C(=O)N[C@H](C)c4cc(OC(F)(F)F)ccc4F)c3)ccc2n1 | nM | 345 |
| [2H]C([2H])([2H])Oc1ncc(-c2ccc3nc(NC(C)=O)cn3n2)cc1C(=O)N[C@@H](C)c1cc(OC(F)(F)F)ccc1F | nM | 63 |
| CC(=O)Nc1cn2nc(-c3cc(F)c(C)c(C(=O)NCc4cc(OC(F)(F)F)ccc4F)c3)ccc2n1 | nM | 78 |
| CC(=O)Nc1cn2nc(-c3cnc(C)c(C(=O)NCc4cc(F)cc(F)c4O[C@H]4CCOC4)c3)ccc2n1 | nM | 18 |

* * *

# tgt: His-GST-TVMV-hRIPK1(1-324) (Homo sapiens (Human), UniProt Q13546)
# Sequence (Q13546 1-324): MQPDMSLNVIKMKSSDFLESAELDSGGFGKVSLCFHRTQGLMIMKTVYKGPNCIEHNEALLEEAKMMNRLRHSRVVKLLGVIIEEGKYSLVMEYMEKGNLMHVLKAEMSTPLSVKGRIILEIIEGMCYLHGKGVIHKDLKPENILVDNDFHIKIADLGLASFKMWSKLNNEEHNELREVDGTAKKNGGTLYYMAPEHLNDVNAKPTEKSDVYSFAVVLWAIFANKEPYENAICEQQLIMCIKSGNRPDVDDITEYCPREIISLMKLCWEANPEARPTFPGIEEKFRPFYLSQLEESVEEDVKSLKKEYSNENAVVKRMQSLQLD
# test.protocol: RIPK1 HTRF Binding Assay
# applied.conditions: HTRF binding, 1 h at rt; read-out: RIPK1 (IC50)
pIC50: −log10 of the molar value. Counter-ions that a name gives are not always drawn.
quantity.measured: pIC50

| molecule | tgt | recorded.number |
| --- | --- | --- |
| [2H]C([2H])([2H])Oc1ncc(-c2ccc3nc(NC(C)=O)cn3n2)cc1C(=O)NCc1cc(F)cc(F)c1OC1CCCOC1 (stereo not drawn) | His-GST-TVMV-hRIPK1(1-324) (Homo sapiens (Human), UniProt Q13546) | 8.00 |
| CC(=O)Nc1cn2nc(-c3cc(C(=O)NCC[C@@H](O)c4ccc(Cl)cc4)c(C)cc3C)ccc2n1 | His-GST-TVMV-hRIPK1(1-324) (Homo sapiens (Human), UniProt Q13546) | 8.40 |
| CC(=O)Nc1cn2nc(-c3cnc(C)c(C(=O)NCc4cccc(OC(F)(F)F)c4)c3)ccc2n1 [Example 221, TFA] | His-GST-TVMV-hRIPK1(1-324) (Homo sapiens (Human), UniProt Q13546) | 7.31 |
| COc1nc(C)c(-c2ccc3nc(NC(C)=O)cn3n2)cc1C(=O)N(C)Cc1cccc(OC(F)(F)F)c1 | His-GST-TVMV-hRIPK1(1-324) (Homo sapiens (Human), UniProt Q13546) | 8.22 |
| CC(=O)Nc1cn2nc(-c3cncc(C(=O)NCc4ncccc4OC4CCCC4)c3)ccc2n1 | His-GST-TVMV-hRIPK1(1-324) (Homo sapiens (Human), UniProt Q13546) | 7.46 |
| COc1nc(C)c(-c2ccc3nc(NC(C)=O)cn3n2)cc1C(=O)NCc1cc(F)ccc1OCC1CCCC1 | His-GST-TVMV-hRIPK1(1-324) (Homo sapiens (Human), UniProt Q13546) | 8.30 |
| CC(=O)Nc1cn2nc(-c3ccc(C)c(C(=O)NCc4ccc(F)cc4C(=O)N4CCC(F)(F)C4)c3)ccc2n1 | His-GST-TVMV-hRIPK1(1-324) (Homo sapiens (Human), UniProt Q13546) | 7.85 |
| CC(=O)Nc1cn2nc(-c3cnc(C)c(C(=O)Nc4cn(Cc5ccccc5)cn4)c3)ccc2n1 | His-GST-TVMV-hRIPK1(1-324) (Homo sapiens (Human), UniProt Q13546) | 7.55 |
| CC(=O)Nc1cn2nc(-c3cc(C(=O)NCc4cc(F)ccc4OC(F)(F)F)cnc3Cl)ccc2n1 [Example 322] | His-GST-TVMV-hRIPK1(1-324) (Homo sapiens (Human), UniProt Q13546) | 8.10 |
| COCC(=O)Nc1cn2nc(-c3cnc(OC)c(C(=O)NCc4ccccc4OC(F)(F)F)c3)ccc2n1 | His-GST-TVMV-hRIPK1(1-324) (Homo sapiens (Human), UniProt Q13546) | 7.52 |
| COc1ncc(-c2ccc3nc(NC(=O)CC#N)cn3n2)cc1C(=O)NCc1cc(OC(F)(F)F)ccc1F | His-GST-TVMV-hRIPK1(1-324) (Homo sapiens (Human), UniProt Q13546) | 6.73 |
| [2H]C([2H])([2H])Oc1nc(C)c(-c2ccc3nc(NC(C)=O)cn3n2)cc1C(=O)NCc1cccc(F)c1OC1C[C@@H](C)O[C@@H](C)C1 (stereo partly drawn) | His-GST-TVMV-hRIPK1(1-324) (Homo sapiens (Human), UniProt Q13546) | 7.68 |
| CC(=O)Nc1cn2nc(-c3ccc(C)c(C(=O)NCc4cc(F)ccc4-c4cnn(C5CC5)c4)c3F)ccc2n1 | His-GST-TVMV-hRIPK1(1-324) (Homo sapiens (Human), UniProt Q13546) | 7.41 |
| CC(=O)Nc1cn2nc(-c3cnc(C)c(C(=O)NCc4ccccc4OC(F)(F)F)c3)ccc2n1 | His-GST-TVMV-hRIPK1(1-324) (Homo sapiens (Human), UniProt Q13546) | 6.69 |
| CC(=O)Nc1cn2nc(-c3cnc(C(F)(F)F)c(C(=O)NCc4cc(OC(F)(F)F)ccc4F)c3)ccc2n1 | His-GST-TVMV-hRIPK1(1-324) (Homo sapiens (Human), UniProt Q13546) | 6.84 |

Reference source for all entries: patent US11440913B2
